- methodDescription: Nuclear factor erythroid 2-related factor 2/antioxidant responsive element (Nrf2/ARE) small molecule agonists: qHTS cell viability counter screen in human keratinocytes (AID 1919968); further: nearly all actives have a fitted effect of over 55% in size
- appliedConditions: KeratinoSens HaCaT ARE cells viability, CellTiter-Fluor, 24 h; series mostly up to 92.4 µM
Records with an inconclusive call do not appear. Activity calls are given as the source filed them. The call rests on the fitted dose curve; in most records, active means well fitted cell-killing curve with a large enough effect in the repeat runs; inconclusive means weak or mixed curves, or effect the other way; inactive means flat fitted curve, though single readings scatter.
Use one of these outcomes when replying: active, inactive

Some entries whose results are on file:
compound: NCCCN(CCO)CCO
className: inactive

compound: S=C([S-])NCCNC(=S)[S-].S=C([S-])NCCNC(=S)[S-].[Mn+2].[Zn+2]
className: inactive

compound: CCCCCCCCCCCC(=O)OCC
className: inactive

compound: CCCCCCOC(=O)CCCCCCCC(=O)OCCCCCC
className: inactive

Below: the item to evaluate.
Problem: Returns: the outcome recorded for `CCSCC` in this assay.
Solution: inactive
